- Test protocol: Plasma pharmacokinetics of MGX and FMGX (noncompartmental analysis), phase 1 fixed-sequence DDI study with itraconazole or rifampin
- Assay type: in vivo, human
- Experimental parameters: human, in vivo, FMGX 500 mg BID IV D18 + ITR 200 mg QD PO D15-30; Cohort 1, n = 16; geometric mean (geometric %CV); read-out: MGX Cmax
Outcome measure: Cmax (ng/mL)
// return numeric value only (unit: ng/mL, not printed)

Reported Cmax, compound Nc1ncccc1-c1cc(Cc2ccc(COc3ccccn3)cc2)no1 [MGX, manogepix] : ____ 7060

====

- Test protocol: Plasma pharmacokinetics of MGX and FMGX (noncompartmental analysis), phase 1 fixed-sequence DDI study with itraconazole or rifampin
- Format: in vivo, human
- Experimental parameters: human, in vivo, FMGX 500 mg BID IV D18 + ITR 200 mg QD PO D15–30; Cohort 1, n = 16; read-out: MGX Cmax, least squares geometric mean
Outcome measure: Cmax (ng/mL)
Respond with the bare value in ng/mL.

Look up Cmax: Nc1ncccc1-c1cc(Cc2ccc(COc3ccccn3)cc2)no1 [MGX, manogepix] 7060

====

- Test protocol: clinical
- Assay type: in vivo, human
- Experimental parameters: human, in vivo, Terminal elimination half-life for MGX
- Experimental: In cohort 1, MGX plasma samples were collected at specified time points daily on days 1–4, once every 2 days on days 6–14, daily for 3 days from days 18 to 20, once every 2 days from days 21 to 29, and then on day 31, while itraconazole samples were collected at specified time points on days 19, 25, and 31. […] PK parameters were calculated using noncompartmental analysis from the plasma concentration-time data for MGX and FMGX. […]
Outcome measure: half-life

Query: half-life; subject: Nc1ncccc1-c1cc(Cc2ccc(COc3ccccn3)cc2)no1 [MGX, manogepix] ~78 h

====

- Test protocol: Plasma pharmacokinetics of MGX and FMGX (noncompartmental analysis), phase 1 fixed-sequence DDI study with itraconazole or rifampin
- Format: in vivo, human
- Experimental parameters: human, in vivo, FMGX 1,000 mg BID IV D24 + RIF 600 mg QD PO D15–33; Cohort 2, n = 17; geometric mean (geometric %CV); read-out: MGX AUC(0-inf)
Outcome measure: AUC(0-inf) (µg·h/mL)
Lab book: enter the figure in µg·h/mL, no units written.

Form field: reported AUC(0-inf) of Nc1ncccc1-c1cc(Cc2ccc(COc3ccccn3)cc2)no1 [MGX, manogepix] 450

====

- Test protocol: Plasma pharmacokinetics of MGX and FMGX (noncompartmental analysis), phase 1 fixed-sequence DDI study with itraconazole or rifampin
- Format: in vivo, human
- Experimental parameters: human, in vivo, FMGX 1,000 mg BID IV D24 + RIF 600 mg QD PO D15–33; Cohort 2, n = 17; geometric mean (geometric %CV); read-out: MGX AUC(0-t)
- Method: In cohort 1, MGX plasma samples were collected at specified time points daily on days 1–4, once every 2 days on days 6–14, daily for 3 days from days 18 to 20, once every 2 days from days 21 to 29, and then on day 31, while itraconazole samples were collected at specified time points on days 19, 25, and 31. […] PK parameters were calculated using noncompartmental analysis from the plasma concentration-time data for MGX and FMGX. […]
Outcome measure: AUC(0-t) (µg·h/mL)
Return type: number; implicit unit µg·h/mL.

Item under review: Nc1ncccc1-c1cc(Cc2ccc(COc3ccccn3)cc2)no1 [MGX, manogepix] . Reported AUC(0-t)? 436
